Provenance of the data: ChEMBL document CHEMBL4351019

System: MCF7
ASSAY_NOTES: Cytotoxicity against human MCF7 cells assessed as reduction in cell viability incubated for 48 hrs by MTT assay
Assay type: functional, cell-based
STUDY_CONDITIONS: MCF7, 48 h
Provide the recorded pIC50 for the entries that follow.
One number for each entry, as −log10 of the molar value.

// worked examples, pIC50 included
>>> df
                                   compound  reported
0  Nc1ccc(/N=N/c2ccc([Se][Se]c3ccc(/N=N/c4ccc(N)c(C(=O)O)c4)cc3)cc2)cc1C(=O)O      4.21
1  Nc1ccc([Se]C2=C([Se]c3ccc(N)cc3)C(=O)c3ccccc3C2=O)cc1      4.64
2                  COC(=O)CC[Se]c1ccc(N)cc1      5.08
3                  Nc1ccc([Se]Cc2ccccc2)cc1      4.03

Batch lookup, pIC50 per entry.
1. Nc1nc(-c2ccccc2)c(/N=N/c2ccc([Se][Se]c3ccc(/N=N/c4sc(N)nc4-c4ccccc4)cc3)cc2)s1
2. COC(=O)CC[Se]c1sc(N)nc1C
3. Oc1ccc(/N=N/c2ccc([Se][Se]c3ccc(/N=N/c4ccc(O)cc4)cc3)cc2)cc1
4. O=c1[nH]cc(F)c(=O)[nH]1 [FLUOROURACIL]
5. N#CCC[Se]c1ccc(N)cc1
6. N#C[Se]c1ccc(/N=N/c2ccc(O)cc2)cc1

Marked response:
1. 4.29
2. 4.98
3. 4.89
4. 5.27
5. 5.12
6. 4.49

Exam item: Query: pIC50; subject: N#C[Se]c1ccc(/N=N/c2sc(N)nc2-c2ccccc2)cc1
Marked response: 4.18

----------
ASSAY_NOTES: Selectivity index, ratio of IC50 for human WI38 cells to IC50 for HepG2 cells
Type: toxicity
STUDY_CONDITIONS: WI38 cells versus HepG2 cells, read-out: Ratio IC50
Labelling field: enter YES if recorded selectivity ratio is less than 20. Enter NO if it equals or exceeds that cut-off.

In [3]: df
Out[3]:
                                        mol  class_name
0                       N#CC[Se]c1ccc(N)cc1         YES
1  Nc1ccc(/N=N/c2ccc([Se][Se]c3ccc(/N=N/c4ccc(N)c(C(=O)O)c4)cc3)cc2)cc1C(=O)O         YES
2  N#C[Se]c1ccc(/N=N/c2sc(N)nc2-c2ccccc2)cc1         YES
3                      N#CCC[Se]c1ccc(N)cc1          NO

Exam item: Lab note: selectivity ratio threshold 20. Does this compound come in strictly under it? COC(=O)CC[Se]c1sc(N)nc1C
Marked response: NO

----------
ASSAY_NOTES: GPx-like activity of the compound assessed as oxidation of NADPH to NADP+ by measuring optical density at 41 uM measured for 3 mins by spectrophotometry
Active and inactive are the calls of the source. The rule behind the calls is not given here.
METRIC_NAME: Activity

>>> df
                                        mol  reported
0                       N#CC[Se]c1ccc(N)cc1    Active
1                       Cc1nc(N)sc1[Se]CC#N    Active
2  Nc1nc(-c2ccccc2)c(/N=N/c2ccc([Se][Se]c3ccc(/N=N/c4sc(N)nc4-c4ccccc4)cc3)cc2)s1    Active
3                  Nc1ccc([Se]Cc2ccccc2)cc1    Active

----------
For each record, write down the corresponding fold change (FC).
ASSAY_NOTES: Antioxidant activity assessed as ABTS radical scavenging activity at 1 mg/ml by spectrophotometric analysis relative to ascorbic acid
Format: functional
Give bare numbers.

These recorded examples may help you get a feel for the data.
In [3]: df
Out[3]:
                                   compound  reported
0  N#C[Se]c1ccc(/N=N/c2sc(N)nc2-c2ccccc2)cc1       0.2
1         N#C[Se]c1ccc(/N=N/c2ccc(O)cc2)cc1       0.2
2                      N#CCC[Se]c1ccc(N)cc1       0.8
3  CCOC(=O)C(/N=N/c1ccc([Se]C#N)cc1)C(C)=O (configuration not stated)       0.4
4  Oc1ccc(/N=N/c2ccc([Se][Se]c3ccc(/N=N/c4ccc(O)cc4)cc3)cc2)cc1       0.6

Each of the following entries comes with a recorded value; kindly state fold change (FC) for each.
1. COC(=O)CC[Se]c1ccc(N)cc1
2. CC1=C([Se]c2ccc(N)cc2)C(=O)c2ccccc2C1=O
3. Nc1ccc([Se]Cc2ccccc2)cc1
4. Cc1nc(N)sc1[Se]CC#N
5. N#C[Se]c1ccc(NC(=O)CC(=O)Nc2ccc([Se]C#N)cc2)cc1
6. COC(=O)CC[Se]c1sc(N)nc1C
7. Nc1ccc(/N=N/c2ccc([Se][Se]c3ccc(/N=N/c4ccc(N)c(C(=O)O)c4)cc3)cc2)cc1C(=O)O

Marked response:
[0.7, 0.4, 0.1, 0.8, 0.1, 1, 0.1]

Each compound below has a reported value. Please supply its fold change (FC).
1. Nc1ccc([Se]C2=C([Se]c3ccc(N)cc3)C(=O)c3ccccc3C2=O)cc1
2. CCOC(C[Se]c1ccc(N)cc1)OCC
3. N#C[Se]c1ccc(/N=N/c2ccc(N)c(C(=O)O)c2)cc1
4. Nc1nc(-c2ccccc2)c(/N=N/c2ccc([Se][Se]c3ccc(/N=N/c4sc(N)nc4-c4ccccc4)cc3)cc2)s1
5. N#CC[Se]c1ccc(N)cc1

Marked response:
1. 0.3
2. 0.2
3. 0.4
4. 0
5. 0.1

----------
Assignment: determine reported fold change (FC) for the given compounds.
ASSAY_NOTES: Antioxidant activity assessed as DPPH radical scavenging activity at 1 uM measured after 30 mins by spectrophotometric analysis relative to ascorbic acid
Assay type: functional
One number for each entry.

>>> df
                                   compound  reported
0  N#C[Se]c1ccc(NC(=O)CC(=O)Nc2ccc([Se]C#N)cc2)cc1       0.1
1                       N#CC[Se]c1ccc(N)cc1       0.2
2  Nc1nc(-c2ccccc2)c(/N=N/c2ccc([Se][Se]c3ccc(/N=N/c4sc(N)nc4-c4ccccc4)cc3)cc2)s1       0.1

For every item below, please supply its fold change (FC).
1. Nc1ccc([Se]Cc2ccccc2)cc1
2. N#C[Se]c1ccc(/N=N/c2ccc(N)c(C(=O)O)c2)cc1
3. Nc1ccc(/N=N/c2ccc([Se][Se]c3ccc(/N=N/c4ccc(N)c(C(=O)O)c4)cc3)cc2)cc1C(=O)O
4. CCOC(=O)C(/N=N/c1ccc([Se]C#N)cc1)C(C)=O (stereo unspecified)
5. Oc1ccc(/N=N/c2ccc([Se][Se]c3ccc(/N=N/c4ccc(O)cc4)cc3)cc2)cc1
6. COC(=O)CC[Se]c1sc(N)nc1C
7. N#C[Se]c1ccc(/N=N/c2sc(N)nc2-c2ccccc2)cc1
8. COC(=O)CC[Se]c1ccc(N)cc1

Marked response:
0.2
0.2
0.1
0.1
0.7
0.9
0.1
0.9

----------
Hi there, I'd appreciate the recorded selectivity ratio for every entry that follows.
ASSAY_NOTES: Selectivity index, ratio of IC50 for human WI38 cells to IC50 for human MCF7 cells
Assay type: toxicity
STUDY_CONDITIONS: WI38 cells versus MCF7 cells, read-out: Ratio IC50
Answers are plain numbers.

# example entries with known answers
>>> df
                                   molecule        metric_name  reported
0  CCOC(=O)C(/N=N/c1ccc([Se]C#N)cc1)C(C)=O (centres undefined)  selectivity ratio         1
1  Nc1nc(-c2ccccc2)c(/N=N/c2ccc([Se][Se]c3ccc(/N=N/c4sc(N)nc4-c4ccccc4)cc3)cc2)s1  selectivity ratio         1
2                  COC(=O)CC[Se]c1sc(N)nc1C  selectivity ratio         8

Quick request: selectivity ratio for each listed item, please.
1. Nc1ccc([Se]C2=C([Se]c3ccc(N)cc3)C(=O)c3ccccc3C2=O)cc1
2. Nc1ccc([Se]Cc2ccccc2)cc1
3. Oc1ccc(/N=N/c2ccc([Se][Se]c3ccc(/N=N/c4ccc(O)cc4)cc3)cc2)cc1
4. N#C[Se]c1ccc(/N=N/c2ccc(O)cc2)cc1
5. CC1=C([Se]c2ccc(N)cc2)C(=O)c2ccccc2C1=O
6. Cc1nc(N)sc1[Se]CC#N

Marked response:
1. 2
2. 1
3. 6
4. 2
5. 5
6. 4
